- Method summary: Metabolic stability in rat liver microsomes assessed as parent compound remaining after 60 mins
- Format: ADME, Microsome
- Protocol conditions: read-out: Stability
Assign remaining at 1 h to each entry below.
Numbers only, in %.

These recorded examples may help you get a feel for the data.
remaining at 1 h reported for this molecule CCCOC(c1ccc(Cl)cc1)C(SC(C)(C)C)n1cnc(C)c1 (stereo unspecified) : 0

remaining at 1 h reported for this molecule CCCOC(c1ccc(Br)cc1)C(SC(C)(C)C)n1cnc(C)c1 (stereo unspecified) : 0

remaining at 1 h reported for this molecule CCOC(c1ccc(Cl)cc1)C(n1ccnc1)[S+]([O-])C(C)(C)C (stereo unspecified) : 39

remaining at 1 h reported for this molecule CCCOC(c1ccc(Cl)c(Cl)c1)C(OC(C)(C)C)n1cnc(C)c1 (stereo unspecified) : 3

remaining at 1 h reported for this molecule CCCOC(c1ccc(Cl)cc1Cl)C(SC(C)(C)C)n1cnc(C)c1 (stereo unspecified) : 2

Others:
remaining at 1 h reported for this molecule CCOC(c1ccc(Cl)cc1)C(n1ccnc1)S(=O)(=O)C(C)(C)C (stereo unspecified) : 47

* * *

- Method summary: Metabolic stability in rat liver microsomes assessed as parent compound remaining after 60 mins
- Format: ADME, Microsome
- Protocol conditions: read-out: Stability
Reported metric: remaining at 1 h

State the recorded remaining at 1 h for every item in the following list.
1. CCOC(c1ccc(Cl)cc1Cl)C(OC(C)(C)C)n1cnc(C)c1 (stereo not drawn)
2. CCOC(c1ccc(Cl)cc1)C(OC(C)(C)C)n1ccnc1 (stereo not drawn)
3. CCOC(c1ccc(Cl)cc1)C(CC(C)(C)C)n1ccnc1 (stereo not drawn)

Solution:
["3%", "25%", "3%"]

* * *

- Study system: Proteinase-activated receptor 1 (Homo sapiens)
- Method summary: Antagonist activity at PAR1 expressed in CHO cells assessed as inhibition of SFLLR-induced intracellular calcium release at 10 uM
- Assay type: functional, cell-based
Assign inhibition to each entry below.
# output: number + unit

These recorded examples may help you get a feel for the data.
inhibition reported for this compound CCCOC(c1ccc(F)cc1)C(OC(C)(C)C)n1ccnc1 (stereo unspecified) : 18%

inhibition reported for this compound CCOC(c1ccc(C(F)(F)F)cc1)C(OC(C)(C)C)n1cnc(C)c1 (stereo unspecified) : 98%

inhibition reported for this compound CCCOC(c1ccccc1Cl)C(SC(C)(C)C)n1cnc(C)c1 (stereo unspecified) : 97%

inhibition reported for this compound CCOC(c1ccc2c(c1)OCCO2)C(SC(C)(C)C)n1ccnc1 (stereo unspecified) : 88%

inhibition reported for this compound CCCOC(c1ccc(Cl)cc1)C(SC(C)(C)C)n1cnc(C)c1 (stereo unspecified) : 99%

State the recorded inhibition for every item in the following list.
1. CCOC(c1ccc(Br)cc1)C(SC(C)(C)C)n1ccnc1 (stereo unspecified)
2. CCOC(c1ccc(Cl)cc1)C(n1ccnc1)S(=O)(=O)C(C)(C)C (stereo unspecified)
3. CCOC(c1ccc(Cl)cc1Cl)C(SC(C)(C)C)n1cnc(C)c1 (stereo unspecified)
4. CCCOC(c1ccc(Br)cc1)C(SC(C)(C)C)n1cnc(C)c1 (stereo unspecified)
5. CCOC(c1ccc(Cl)cc1)C(SC1CCCCC1)n1ccnc1 (stereo unspecified)
6. CCOC(c1ccc(Cl)cc1)C(SC(C)C)n1ccnc1 (stereo unspecified)

Solution:
1: 100%; 2: 13%; 3: 93%; 4: 76%; 5: 3%; 6: 40%
